- Test system: Plasmodium berghei
- method_description: Screen against P. berghei liver stage (PbLuc), transformed with Luciferase, at 2uM
- Assay type: functional, HepG2
- condition_details: tested at 2 uM
The whole screen tested about 68,000 compounds, of which about 2,700 (4%) showed an effect of 50% or more. The list comes from a sample in which strong results are over-represented; it also holds close analogues and randomly drawn compounds.
What INHIBITION was measured for each of the following?
// unit must come after the numeric part

Solved entries (count: 5):
>>> assay_result("Cc1cnn(CC(C)NCc2nc(-c3ccoc3)no2)c1 (centres undefined)")
"59.68%"
>>> assay_result("O=C(C1CC1)N1CCC2(CCN(Cc3cccc(F)c3)CC2)CC1")
"27.05%"
>>> assay_result("Cc1[nH]c2cc(C3CCN(C(=O)c4ccccn4)CC3)nn2c(=O)c1C")
"9.9%"
>>> assay_result("Cc1ccc(O)c(C(=O)N2CCOCC2c2c(C)n[nH]c2C)c1 (centres undefined)")
"24.02%"
>>> assay_result("CCOCC1CN(Cc2cnn(C)c2)Cc2nn(CC3CC3)cc21 (centres undefined)")
"-50.35%"

For every listed record, write down its INHIBITION.
1. CS(=O)(=O)N1CCCC12CCCN(S(=O)(=O)c1cccc(F)c1)C2 (centres undefined)
2. COCCNC(=O)[C@H]1C[C@@H]2CCN(CCc3ccccc3)C[C@H]2O1
3. CC(=O)Nc1nc(COc2nc(C)no2)cs1
4. Cc1cc(C(=O)N2CCCC2)ccc1NCc1nc(CC(C)C)no1
5. Cc1ccc(O)c(C(=O)N2CCOCC2c2c(C)nn(C)c2C)c1 (centres undefined)
6. Cc1cccc(N(C)S(=O)(=O)c2cc(C(=O)O)cs2)c1
7. Cc1ccc([C@@]2(O)CC[C@@H]3CN(S(=O)(=O)C(C)C)C[C@@H]32)cc1

1. 32.41%
2. -56.44%
3. -4.89%
4. 58.05%
5. 60.71%
6. 68.24%
7. 40.31%

====

- Test system: Plasmodium berghei
- method_description: Screen against P. berghei liver stage (PbLuc), transformed with Luciferase, at 2uM
- Type: functional, HepG2
- condition_details: tested at 2 uM
Hit rate of the full screen: of about 68,000 compounds, about 2,700 (4%) showed an effect of 50% or more. Many of the other results were omitted from the sample, so strong results are more common in it than they were.
Class field: derived from INHIBITION; ranges low range: < 20%; mid range: ≥ 20% and < 30%; high range: ≥ 30%

Here's what some known entries look like.
>>> class_name("O=C(Nc1c(N2CCCC2)cccc1N1CCCC1)c1cnsn1")
"high range"
>>> class_name("CC(C)(C)c1noc(CCCC(=O)NCC2CCS(=O)(=O)C2)n1 (stereo not drawn)")
"low range"
>>> class_name("Cc1nccc(N2CCCC(C)(C(=O)NC3CCCC3)C2)n1 (stereo not drawn)")
"low range"

Class? Entry: CC(C)c1noc(OCC(=O)N2CCCCC2C)n1 (stereo not drawn) low range

====

- Test system: Plasmodium berghei
- method_description: Screen against P. berghei liver stage (PbLuc), transformed with Luciferase, at 2uM
- Type: functional, HepG2
- condition_details: tested at 2 uM
The whole screen tested about 68,000 compounds, of which about 2,700 (4%) showed an effect of 50% or more. The entries come from a sample that favours strong results as a whole.
Class field: derived from INHIBITION; ranges lower band = under -10%, central band = from -10% up to 30%, upper band = 30% and over

Here's what some known entries look like.
>>> class_name("CC(C)C(C(=O)N1CCC(Nc2cccnn2)CC1)n1cncn1 (stereo not given)")
"lower band"
>>> class_name("CCc1nnc2n1CCN(C(=O)CN(CC)CC)C2")
"upper band"
>>> class_name("CCCC(=O)N1CCC(O)(Cn2c(CC)nc3ccccc3c2=O)CC1")
"lower band"
>>> class_name("COCc1ccccc1NC(=O)c1ccoc1")
"lower band"
>>> class_name("CCc1nnc(CN(C)Cc2nc(-c3ccccc3Cl)oc2C)o1")
"central band"

Class? Entry: Cc1cccc(CN2CCc3[nH]nc(C(=O)N(C)C)c3C2)n1 lower band

Class? Entry: CCc1nnc2n1CCN(C(=O)c1cc3cc(C)ccc3[nH]1)C2 upper band

====

- System: Plasmodium berghei
- method_description: Screen against P. berghei liver stage (PbLuc), transformed with Luciferase, at 2uM
- Format: functional, HepG2
- condition_details: tested at 2 uM
Screen size: about 68,000 compounds; about 2,700 (4%) showed an effect of 50% or more. For the sample, strong results were picked, then their nearest neighbours and some compounds at random.
What INHIBITION was measured for each of the following?
One number for each entry, in %.

>>> assay_result("O=c1c2ccc(C(F)(F)F)cc2ncn1CCCN1CCCCC1CO (centres undefined)")
-13.49
>>> assay_result("COCc1cncc2c1CCN(Cc1cnn(C)c1)C2")
53.98

For every listed record, write down its INHIBITION.
1. Cc1nc(N2CCN(C)CC2)ncc1C(=O)N1CC[C@](C)(O)[C@H](C)C1
2. CC(NCc1cccs1)c1ccc(OCc2nccn2C)cc1 (centres undefined)

-5.13
63.46

====

- System: Plasmodium berghei
- method_description: Screen against P. berghei liver stage (PbLuc), transformed with Luciferase, at 2uM
- Format: functional, HepG2
- condition_details: tested at 2 uM
Out of some 68,000 compounds screened, about 2,700 (4%) showed an effect of 50% or more. Only a selection was taken, and strong results are over-represented in it overall.
Class field: derived from INHIBITION; ranges range A: < -20%; range B: ≥ -20% and < 10%; range C: ≥ 10%

Here's what some known entries look like.
>>> class_name("O=C(CCNS(=O)(=O)c1ccc(Cl)cc1)NCc1ccoc1")
"range A"
>>> class_name("CCC(=O)NCCc1cc(N2CCN(C(C)=O)CC2)nc(C2CC2)n1")
"range A"
>>> class_name("COc1ccc2c(C)c(C(=O)NC3CCN(S(C)(=O)=O)CC3)oc2c1")
"range C"

Class? Entry: COCCC1COC2(CCN(C(=O)C3CCC3)CC2)C1 (centres undefined) range B

Class? Entry: CNC(=O)N1CC[C@@H]2CN(Cc3cccnc3)S(=O)(=O)[C@@H]2CC1 range A

Class? Entry: CN(C)C[C@H]1OC[C@@H]2CCN(C(=O)c3cccn3C)C[C@@H]21 range B

Class? Entry: CCc1noc(C2CCCCN2C(=O)c2ccc3c(c2)OCO3)n1 (centres undefined) range C

Class? Entry: Cc1ccc([C@]2(O)CC[C@H]3CN(Cc4cccc(Cl)c4Cl)C[C@H]32)nc1 range C

====

What INHIBITION was measured for each of the following?
- System: Plasmodium berghei
- method_description: Screen against P. berghei liver stage (PbLuc), transformed with Luciferase, at 2uM
- Type: functional, HepG2
- condition_details: tested at 2 uM
In all, about 68,000 compounds went through this assay and about 2,700 (4%) showed an effect of 50% or more. This is one part of a sample in which strong results are shown more often than they occur.
// unit must come after the numeric part

Solved entries (count: 3):
>>> assay_result("Cc1cc(=O)n2ncnc2n1CC(O)COCc1ccccc1Cl (stereo not given)")
"19.59%"
>>> assay_result("O=C(N1CCCC1)N1CCC2(CC1)CN(c1cccnc1)C(=O)CO2")
"39.86%"
>>> assay_result("CCn1cnnc1C1CCN(C(=O)c2ccc3ccccc3n2)CC1")
"-6.48%"

For every listed record, write down its INHIBITION.
1. CN(Cc1ccc([S+](C)[O-])cc1)c1ccc(Br)cn1 (stereo not given)
2. C[C@@H](NCc1cccc(Cl)c1)c1onc(-c2ccc(F)cc2)c1C(=O)O
3. CN1CCN(S(=O)(=O)c2cccc(S(=O)(=O)C3CCS(=O)(=O)C3)c2)CC1 (stereo not given)

67.28%
37.54%
28.43%

For every listed record, write down its INHIBITION.
1. Cc1ccc(-n2ccnc2)c(C(=O)NCCOCC2CCCO2)c1 (stereo not given)
2. Cc1ccc(-n2ccnc2)c(C(=O)NCCCN(C)C)c1
3. COc1cn(-c2ccccc2)nc1C(=O)NCCCN1CCCC(C)C1 (stereo not given)
4. Cc1ccc(-n2ccnc2)c(C(=O)NCCOCC(F)(F)F)c1

1: 51.4%; 2: 20.21%; 3: 20.11%; 4: 16.98%

====

- Test system: Plasmodium berghei
- method_description: Screen against P. berghei liver stage (PbLuc), transformed with Luciferase, at 2uM
- Format: functional, HepG2
- condition_details: tested at 2 uM
The campaign covered roughly 68,000 compounds. About 2,700 (4%) showed an effect of 50% or more. The full list was thinned out, with strong results kept by preference.
What INHIBITION was measured for each of the following?
Give bare numbers, in %.

Solved entries (count: 5):
>>> assay_result("COc1cc(S(=O)(=O)N2CCCc3ccccc32)cc(C(=O)O)c1OC")
56.72
>>> assay_result("Cc1nn(C)c(C)c1C1CCCN1CC(=O)NCc1ccccn1 (stereo not given)")
-29.54
>>> assay_result("O=C(C1CCCN(C2CCOCC2)C1)N1Cc2ccccc2C1 (stereo not given)")
-45.79
>>> assay_result("COc1cc(S(=O)(=O)N2CCc3ccc(Cl)cc32)cc(C(=O)O)c1OC")
6.3
>>> assay_result("CC(=O)N1C[C@H]2CC[C@@H](C1)N(S(=O)(=O)c1ccc(F)cc1Cl)C2")
-11.81

For every listed record, write down its INHIBITION.
1. CCC1CN(C(=O)c2cccc(O)c2)CCC(=O)N1Cc1ccccc1 (stereo not given)
2. CCC(Nc1cccc(OC)c1)C(=O)NCc1ccc2c(c1)OCO2 (stereo not given)

1. -0.23
2. 11.6

For every listed record, write down its INHIBITION.
1. Cc1cc(C)nc(C2CCCN2C(=O)c2cnccn2)n1 (stereo not given)
2. CCc1nccn1C1CCCN(C(=O)c2ccc3c(c2)OCCO3)C1 (stereo not given)
3. Cc1cnc(C)c(N2CCN(CC3CCCO3)CC2)n1 (stereo not given)

1: -48.89; 2: -14.17; 3: -18.84
